- Species: Rattus norvegicus
- measurement notes: Open TG-GATES - Regimen: Daily Repeat
- Format: toxicity, organism-based, Sprague-Dawley
- Design: regimen Daily Repeat, gender Male, age 6 weeks
- recorded conditions: in vivo, po, 300 mg/kg, […], tissue Plasma, route gavage, dose level Middle, time 28 day
Hi there, I'd appreciate the recorded IP for every entry that follows.
Reply with just the number (in mg/dL).

Record summary for CC(S)C(=O)NCC(=O)O (centres undefined) : reported IP = 6.5

The reported IP of the molecule O=C(O)c1ccccc1Nc1ccccc1 was 6.7

The molecule listed as CC(=O)[C@@]1(O)CC[C@H]2[C@@H]3C=C(Cl)C4=CC(=O)CC[C@]4(C)[C@H]3CC[C@@]21C has a reported IP of 6

Reported IP ( CCCCNC(=O)NS(=O)(=O)c1ccc(C)cc1 [TOLBUTAMIDE] ) = 6.7
